Target: UniProt:Q06124
Experiment: SHP2 Allosteric Inhibition Assay
Assay type: biochemical
Conditions: 0.5 nM SHP2 with 0.5 μM peptide IRS1_pY1172(dPEG8)pY1222; surrogate substrate DiFMUP; 25° C.; read-out: SHP2 IC50
Observable: pIC50
Kindly note that pIC50 refers to -log10 of the concentration in mol/L and answer with the value alone.

## Task Report pIC50 for C[C@@H]1OCC2(CCN(c3nc4[nH]nc(-c5ccnc(N(C)C)c5Cl)c4c(=O)n3C)CC2)[C@@H]1N [Example 71] please.
## Result 7.66

## Task Report pIC50 for Cn1c(N2CCC(C)(CN)CC2)nc2[nH]nc(-c3ccnc(Cl)c3Cl)c2c1=O [Example 25] please.
## Result 7.00

## Task Report pIC50 for COc1nccc(-c2n[nH]c3nc(N4CCC5(CC4)CO[C@@H](C)[C@H]5N)n(C)c(=O)c23)c1Cl [Example 18] please.
## Result 7.37

## Task Report pIC50 for Cc1nc(N(C)C)ccc1-c1n[nH]c2nc(N3CCC4(CC3)CO[C@@H](C)[C@H]4N)n(C)c(=O)c12 [Example 40] please.
## Result 7.05

----------
Biological target: UniProt:Q06124
Experiment: SHP2 Allosteric Inhibition Assay
Type: biochemical
Details: 0.5 nM SHP2 with 0.5 μM peptide IRS1_pY1172(dPEG8)pY1222; surrogate substrate DiFMUP; 25° C.; read-out: SHP2 IC50
Reported values of pIC50 for individual entries
Kindly note that pIC50 refers to -log10 of the concentration in mol/L and answer with the value alone.

Example results:
C[C@@H]1OCC2(CCN(c3nc4[nH]nc(-c5ccnc(N6CCOCC6)c5Cl)c4c(=O)n3C)CC2)[C@@H]1N 6.99
Cn1c(N2CCC3(CCC[C@H]3N)CC2)nc2[nH]nc(-c3ccnc(N)c3Cl)c2c1=O 6.44
COc1ccc(-c2n[nH]c3nc(N4CCC5(CC4)CO[C@@H](C)[C@H]5N)n(C)c(=O)c23)cn1 7.62
Cc1nc(N)ccc1-c1n[nH]c2nc(N3CCC4(CC3)CO[C@@H](C)[C@H]4N)n(C)c(=O)c12 7.43
C[C@@H]1OCC2(CCN(c3nc4[nH]nc(-c5cc(F)ccc5F)c4c(=O)n3C)CC2)[C@@H]1N 7.77
C[C@H]1C[C@@H](N)C2(CCN(c3nc4[nH]nc(-c5ccnc(N)c5Cl)c4c(=O)n3C)CC2)C1 7.49

Now take the following compound into account.
## Task Report pIC50 for `Cn1c(N2CCC3(CC2)CC(F)(F)C[C@H]3N)nc2[nH]nc(-c3ccnc(NC4CC4)c3Cl)c2c1=O` please.
## Result 7.46

----------
Reported values of IC50 for individual entries
Target: SHP2 (Homo sapiens (Human))
Test: SHP2 Allosteric Inhibition Assay
Assay type: biochemical
Details: 0.5 nM SHP2 with 0.5 μM peptide IRS1_pY1172(dPEG8)pY1222; surrogate substrate DiFMUP; 25° C.; read-out: SHP2 IC50
Give just the number in nM; leave the unit off.

CCNc1nccc(-c2n[nH]c3nc(N4CCC5(CC4)CO[C@@H](C)[C@H]5N)n(C)c(=O)c23)c1Cl 47
COc1ccccc1-c1n[nH]c2nc(N3CCC4(CC3)CO[C@@H](C)[C@H]4N)n(C)c(=O)c12 91
C[C@@H]1OCC2(CCN(c3nc4[nH]nc(-c5ccnc(Cl)c5)c4c(=O)n3C)CC2)[C@@H]1N 16

Now take the following compound into account.
## Task Report IC50 for `COc1cccc(-c2n[nH]c3nc(N4CCC5(CC4)COC[C@H]5N)n(C)c(=O)c23)c1Cl` please.
## Result 25

----------
Molecular target: SHP2 (Homo sapiens (Human))
Test: SHP2 Allosteric Inhibition Assay
Format: biochemical
Settings: 0.5 nM SHP2 with 0.5 μM peptide IRS1_pY1172(dPEG8)pY1222; surrogate substrate DiFMUP; 25° C.; read-out: SHP2 IC50
Reported values of pIC50 for individual entries
Kindly note that pIC50 refers to -log10 of the concentration in mol/L and answer with the value alone.

Example results:
Compound	System	Quantitative Result
Cn1c(N2CCC3(CC2)C[C@@H](C(F)(F)F)C[C@H]3N)nc2[nH]nc(-c3ccncc3)c2c1=O [Example 54]	SHP2 (Homo sapiens (Human))	7.68
C[C@H]1C[C@@H](N)C2(CCN(c3nc4[nH]nc(-c5ccncc5)c4c(=O)n3C)CC2)C1 [Example 36]	SHP2 (Homo sapiens (Human))	8.05
Cn1c(N2CCC3(CC2)COC[C@H]3N)nc2[nH]nc(-c3cccc(Cl)c3Cl)c2c1=O [Example 20]	SHP2 (Homo sapiens (Human))	7.30

Now take the following compound into account.
## Task Item C[C@@H]1OCC2(CCN(c3cnc4c(-c5ccnc(Cl)c5Cl)n[nH]c4n3)CC2)[C@@H]1N [Example 85] with SHP2 (Homo sapiens (Human)) - pIC50?
## Result 7.17

----------
Target: SHP2 (Homo sapiens (Human))
Test: SHP2 Allosteric Inhibition Assay
Format: biochemical
Conditions: 0.5 nM SHP2 with 0.5 μM peptide IRS1_pY1172(dPEG8)pY1222; surrogate substrate DiFMUP; 25° C.; read-out: SHP2 IC50
Reported values of pIC50 for individual entries
Kindly note that pIC50 refers to -log10 of the concentration in mol/L and answer with the value alone.

Example results:
Cn1c(N2CCC3(CC2)COC[C@H]3N)nc2[nH]nc(-c3ccncc3)c2c1=O 7.41
CNc1nccc(-c2n[nH]c3nc(N4CCC5(CC4)CO[C@@H](C)[C@H]5N)n(C)c(=O)c23)c1Br 7.47
Cn1c(N2CCC3(CC2)C[C@H](F)C[C@H]3N)nc2[nH]nc(-c3ccnc(NC4CC4)c3Cl)c2c1=O 7.96
C[C@@H]1OCC2(CCN(c3nc4[nH]nc(-c5ccnc(NCC6CC6)c5Cl)c4c(=O)n3C)CC2)[C@@H]1N 7.41
Cn1c(N2CCC3(CC2)C[C@H](F)C[C@H]3N)nc2[nH]nc(-c3ccnc(N)c3Cl)c2c1=O 7.57

## Task Report pIC50 for `Cc1c(-c2n[nH]c3nc(N4CCC5(CC4)CO[C@@H](C)[C@H]5N)n(C)c(=O)c23)ccnc1Cl` please.
## Result 7.77

## Task Report pIC50 for `Cn1c(N2CCC(C)(CN)CC2)nc2[nH]nc(-c3cccc(C(F)(F)F)c3Cl)c2c1=O` please.
## Result 6.90

----------
Biological target: SHP2 (Homo sapiens (Human), UniProt Q06124)
Sequence (Q06124 whole entry): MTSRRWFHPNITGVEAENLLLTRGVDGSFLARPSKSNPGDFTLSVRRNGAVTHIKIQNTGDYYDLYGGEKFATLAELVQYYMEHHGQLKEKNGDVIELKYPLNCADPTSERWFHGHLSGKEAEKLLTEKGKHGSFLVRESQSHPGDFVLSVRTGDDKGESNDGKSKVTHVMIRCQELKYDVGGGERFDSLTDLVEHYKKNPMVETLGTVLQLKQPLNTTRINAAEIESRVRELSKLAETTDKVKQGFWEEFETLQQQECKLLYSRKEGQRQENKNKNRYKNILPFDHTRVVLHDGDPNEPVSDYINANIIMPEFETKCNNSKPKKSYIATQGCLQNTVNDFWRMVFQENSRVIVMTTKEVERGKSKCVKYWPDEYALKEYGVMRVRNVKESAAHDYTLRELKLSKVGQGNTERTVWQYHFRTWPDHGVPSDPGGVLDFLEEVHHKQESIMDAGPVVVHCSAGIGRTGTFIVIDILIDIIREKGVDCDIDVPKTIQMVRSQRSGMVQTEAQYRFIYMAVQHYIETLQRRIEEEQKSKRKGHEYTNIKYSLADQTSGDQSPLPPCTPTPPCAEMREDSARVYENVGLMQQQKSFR
Assay: SHP2 Allosteric Inhibition Assay
Format: biochemical
Details: 0.5 nM SHP2 with 0.5 μM peptide IRS1_pY1172(dPEG8)pY1222; surrogate substrate DiFMUP; 25° C.; read-out: IC50
Define the label as TRUE when IC50 is strictly less than 40 nM and as FALSE in all remaining cases.

For orientation, consider the following solved cases.
C[C@@H]1OCC2(CCN(c3nc4[nH]nc(Sc5ccnc(N)c5Cl)c4c(=O)n3C)CC2)[C@@H]1N TRUE
Cn1c(N2CCC(C)(CN)CC2)nc2[nH]cc(-c3cccc(Cl)c3Cl)c2c1=O FALSE
CC1(CN)CCN(c2cc3[nH]cc(-c4cccc(Cl)c4Cl)c3c(=O)[nH]2)CC1 FALSE
Cn1c(N2CCC3(CCC[C@H]3N)CC2)nc2n[nH]c(-c3cccc(Cl)c3Cl)c2c1=O TRUE
CC(C)Nc1nccc(-c2n[nH]c3nc(N4CCC5(CC4)CO[C@@H](C)[C@H]5N)n(C)c(=O)c23)c1Cl TRUE
COc1nccc(-c2c[nH]c3nc(N4CCC5(CC4)CO[C@@H](C)[C@H]5N)n(C)c(=O)c23)c1Cl TRUE

Okay, now this compound:
## Task Take the compound `C[C@@H]1OCC2(CCN(c3nc4[nH]nc(-c5ccnc(N)c5Cl)c4c(=O)n3C)CC2)[C@@H]1N` and say whether its IC50 is less than 40 nM.
## Result TRUE

----------
Biological target: SHP2 (Homo sapiens (Human), UniProt Q06124)
Experiment: SHP2 Allosteric Inhibition Assay
Assay type: biochemical
Conditions: 0.5 nM SHP2 with 0.5 μM peptide IRS1_pY1172(dPEG8)pY1222; surrogate substrate DiFMUP; 25° C.; read-out: SHP2 IC50
Define the label as rule met when IC50 is strictly less than 50 nM and as rule not met in all remaining cases.

For orientation, consider the following solved cases.
Molecule	Assigned Category
Cn1c(N2CCC3(CC2)COC[C@H]3N)nc2[nH]nc(-c3ccnc(Cl)c3Cl)c2c1=O [Example 21]	rule not met
C[C@@H]1OCC2(CCN(c3nc4[nH]nc(-c5cc(N)ncc5Cl)c4c(=O)n3C)CC2)[C@@H]1N [Example 80]	rule not met
C[C@@H]1OCC2(CCN(c3nc4[nH]nc(-c5ccc6c(c5)CCO6)c4c(=O)n3C)CC2)[C@@H]1N [Example 56]	rule not met

## Task Take the molecule Cn1c(N2CCC3(CC2)C[C@H](F)C[C@H]3N)nc2[nH]nc(-c3ccccc3)c2c1=O [Example 39] and say whether its IC50 is less than 50 nM.
## Result rule met

## Task Take the molecule C[C@@H]1OCC2(CCN(c3nc4[nH]nc(-c5ccccc5F)c4c(=O)n3C)CC2)[C@@H]1N [Example 63] and say whether its IC50 is less than 50 nM.
## Result rule met

## Task Take the molecule Cc1nc(N)ccc1-c1n[nH]c2nc(N3CCC4(CC3)C[C@@H](C(F)(F)F)C[C@H]4N)n(C)c(=O)c12 [Example 53] and say whether its IC50 is less than 50 nM.
## Result rule met

## Task Take the molecule COc1ccc(-c2n[nH]c3nc(N4CCC5(CC4)CO[C@@H](C)[C@H]5N)n(C)c(=O)c23)cc1F [Example 59] and say whether its IC50 is less than 50 nM.
## Result rule met

## Task Take the molecule Cn1c(N2CCC(C)(CN)CC2)nc2[nH]nc(Sc3cccc(Cl)c3Cl)c2c1=O [Example 83] and say whether its IC50 is less than 50 nM.
## Result rule met

## Task Take the molecule C[C@@H]1OCC2(CCN(c3nc4[nH]nc(-c5ccnc(N6CCCC6)c5Cl)c4c(=O)n3C)CC2)[C@@H]1N [Example 31] and say whether its IC50 is less than 50 nM.
## Result rule met

All values here come from patent US10975080B2.
